Test system: MS2 coat protein
Experimental Protocol: apparent KD of MS2 coat protein; designed switch direction (-1 OFF switch, 1 ON switch): -1; higher = weaker reporter binding
Cond: input ligand: none
Assign yes to entries whose apparent KD of MS2 coat protein meets or exceeds 20 nM; assign no to the rest.

Some entries whose results are on file:
Chain	Discrete Label
AAACAACGGACAGGAUAUCCGAAAAUAAAGCUAGGAGAAGGGUCGAAAACAUGAGGAUCACCCAUGUGCGUGGCGGGUUCUUAG [Zaerqu] (Eterna round: R96, puzzle: Exclusion NG 1)	yes
AAUCUGCCGUAGGAUAUCUGAAGUUUAUAUAUAAGAGAAGGACGGACAUGAGGAUCACCCAUGUACGAUCCUGC [EX6 B.24] (Eterna round: R97, puzzle: Exclusion 6)	no
GUUCGACAUGAGGAUCACCCAUGUGAGGAUAUACGAUUAGCUGCUAGGUAGUUAGUAUGUAGAAGGUGCAUGAA [EX1 #73] (Eterna round: R97, puzzle: Exclusion 1)	yes

Task item: Please check the record ACAGUACUGCAAGGAUAUCGUUCUAGUUUAUUACGAGAAGGUGCUUUAGUUAUUUCUUUGGGUUGACAUGAGGAUCACCCAUGU [JR_ExcNG1_Sub056] (Eterna round: R96, puzzle: Exclusion NG 1) and state if its apparent KD of MS2 coat protein is at or above 20 nM.
Reply: yes

###

System: MS2 coat protein
Experimental Protocol: apparent KD of MS2 coat protein; designed switch direction (-1 OFF switch, 1 ON switch): -1; higher = weaker reporter binding
Cond: input ligand: none
Documented apparent KD of MS2 coat protein across a set of sequences
Use nM as the unit, but write only the number.

Worked examples, 4 sequences total:
Chain	Number
CUUCUCAAAGGAUAUCACGGUAAUAACAUGAGGAUCACCCAUGUGCAAUUCGUGUCCCUGUGAGAAGGUUGAGAAG [Remaor] (Eterna round: R96, puzzle: Exclusion 5)	13.2
AGCUGUGGCCGAGGAUAUCACGACCGAUGGAAAACCAUCGGAACUCCACAUGAGGAUCACCCAUGUGAGAAGGCGGUCUCAGCA [Eli eng2 - 028] (Eterna round: R96, puzzle: Exclusion NG 2)	13.4
GAAAGACAUGAGGAUCACCCAUGUCAGGAUAUGAUGCCAGCGUAGCUAGUAGGUUUUGUCAGAAGGGACGGGUU [Eternabot (L1) Solution 70] (Eterna round: R97, puzzle: Exclusion 1)	27.4
CCGGCGUGGUGCGGUUGUCGUUCGACAUGAGGAUCACCCAUGUAGGAUAUGCGCGUGGUCGCGCCGCAGAAGGGCAUCGUUUGG [Random, 15% A] (Eterna round: R96, puzzle: Exclusion NG 3)	14.5

Task item: Name the reported apparent KD of MS2 coat protein value associated with the sequence CUUUUGUGAGGAUAUUCGUAGUAGGGUCAUGGUACUAUUACGGAGAAGGCACAUGAGGAUCACCCAUGUACCUU [EX4 #44] (Eterna round: R97, puzzle: Exclusion 4)
Reply: 15.8

###

System: MS2 coat protein
Experimental Protocol: apparent KD of MS2 coat protein; designed switch direction (-1 OFF switch, 1 ON switch): -1; higher = weaker reporter binding
Cond: input ligand: FMN 200 uM
Readout Name: apparent KD of MS2 coat protein

Known apparent KD of MS2 coat protein results, listed for orientation:
Chain	Test Target	Result
UGAUUGUUUACCAGGUUAUACAUGAGGAUCACCCAUGUAGAUCCUACGUGCGCGUUGUACCGCUCGUCUUAUUGCCA [Sensor-V1 #79] (Eterna round: R97, puzzle: Sensor, turn-off variant 1)	MS2 coat protein	19.5 nM
GAAUAGAGAGGAUAUGCGUAGUAGGUAGUAAGAUAUAUCUGACAUGAGGAUCACCCAUGUAGAAGGCUCAGAUC [EX2 #3] (Eterna round: R97, puzzle: Exclusion 2)	MS2 coat protein	40.1 nM
AAGAAUUUGCAGGAUAUCUACCACGAUAGGGAUAGAGAAGGGUAAACAUGAGGAUCACCCAUGUAGUAGGUCCG [Eternabot (L2) Solution 91] (Eterna round: R97, puzzle: Exclusion 6)	MS2 coat protein	61.3 nM
ACAAGCUUUUGCUCGUCUUACAUGAGGAUCACCCAUGUCGGGAACAUGCAUACAUACAACAUAUAAACAGUAACAGA [high energy, high % A (36%)] (Eterna round: R97, puzzle: Sensor, turn-off variant 1)	MS2 coat protein	20.1 nM

Next, consider the following sequence.
Task item: What value of apparent KD of MS2 coat protein has been recorded for this entry: ACAUGUUAUCCAUGAUAUCACAUGAGGAUCACCCAUGUUAAGGCGAUUUUGAGGUGUAAGCUUUGUGCUCGACUUAU [JR_STOV1_Sub055] (Eterna round: R97, puzzle: Sensor, turn-off variant 1)
Reply: 107 nM
